Test system: NCI-H23
Assay: NCI tumour cell line growth inhibition, 48 h
The source made the active and inactive calls. Rule as the data show it: active = GI50 up to about 1.1 µM and inactive = higher. *1 amine or outer side, *2 acyl side, *3 side chain or, on linkers, in order; H or OH if unused. Where a SMILES comes first, the peptide text is derived from it. Bridges are numbered along the chain shown (N, C = ends). [ ]: non-standard residue; d: D form. The star is where a group is joined. X36 = O=C(C(CCCCNO[*:3])N[*:1])[*:2]; Fmoc = O=C(OCC1c2ccccc2-c2ccccc21)*
I'd be grateful if you could share measured GI50 for these entries.

Quote GI50 reported for NC(Cc1ccccc1CP(=O)(O)O)C(=O)O (stereo not given) please. > 100 µM (inactive)

Quote GI50 reported for NC(=O)CNC(=O)C1CCCN1C(=O)C1CCCCNOC(=O)CCC(NC(=O)OCC2c3ccccc3-c3ccccc32)C(=O)NC(Cc2c[nH]c3ccccc23)C(=O)N1 (stereo not given) (Fmoc-EW[X36]PG-NH2; ester 1-3; configuration not given here) please. > 100 µM (inactive)

Quote GI50 reported for Cc1nc(N)c(N2CCN([N+](=O)[O-])CC2)c(O)n1 please. > 100 µM (inactive)

Quote GI50 reported for COC(=O)C(CCSc1ccccc1)C(=O)OC please. > 100 µM (inactive)

Quote GI50 reported for O=C(/C=N/O)Nc1cc(Cl)c(Cl)cc1Cl please. 29.6 µM (inactive)

====

Tested on: SNB-19
Assay: NCI tumour cell line growth inhibition, 48 h
Calls of active or inactive are those of the source. No stated cut-off is given here; in the data, active = GI50 up to about 1.1 µM and inactive = higher.
Allowed answers: yes (1) for active, no (0) for inactive

What outcome does the record of this test show for C/C(=N\NC(=[Se])N1CCN(c2ccccn2)CC1)c1ccccn1 ? no (0)

What outcome does the record of this test show for O=S(=O)(c1cc(Cl)ccc1Cl)N1CCN(c2cccc(Cl)c2)CC1 ? no (0)

What outcome does the record of this test show for CC(=O)Nc1ccc2c3c(cc(O)c2c1)N(C(=O)CCCCC(=O)N1CC(CCl)c2c1cc(O)c1cc(NC(C)=O)ccc21)CC3CCl (stereo not given) ? yes (1)

What outcome does the record of this test show for c1ccc([B-]2(c3ccccc3)NCCCO2)cc1 ? no (0)

What outcome does the record of this test show for O=C(CSc1nc2ccc(I)cc2c(=O)n1Cc1ccccc1)Nc1ccccc1 ? no (0)

What outcome does the record of this test show for Cc1cc(=O)oc2cc3c(cc12)Oc1ccccc1O3 ? no (0)

What outcome does the record of this test show for COc1ccc(/C=C\c2cc(OC)c(OC)c(OC)c2)cc1OC(=O)NCCN(C)C ? yes (1)

What outcome does the record of this test show for COc1cc(-c2ccccc2N)c2cccnc2c1OC ? no (0)

What outcome does the record of this test show for O=S(=O)(/N=C(\NO)Nc1ccc(Cl)cc1)c1cccc2nsnc12 ? no (0)

What outcome does the record of this test show for CSc1nc(C)cc(=O)n1C1OC(COC(C)=O)C(OC(C)=O)C(OC(C)=O)C1OC(C)=O (stereo not given) ? no (0)

====

I'd be grateful if you could share measured GI50 for these entries.
Tested on: LOX IMVI
Test: NCI tumour cell line growth inhibition, 48 h
The source made the active and inactive calls. Rule as the data show it: active = GI50 up to about 1.1 µM and inactive = higher.

Quote GI50 reported for CC12Oc3ccc4ccccc4c3CC1Cc1c(ccc3ccccc13)O2 (stereo unspecified) please. 56.2 µM (inactive)

Quote GI50 reported for CCOP(=O)(OCC)/C(C#N)=C/c1ccc(-c2ccc(F)cc2F)o1 please. 13.3 µM (inactive)

Quote GI50 reported for O=C1CCC2(O)c3ccccc3C2Cc2ccccc21 (stereo unspecified) please. > 100 µM (inactive)

Quote GI50 reported for COc1ccc(CN(O)C2C(CO)OC(n3cc(I)c(=O)[nH]c3=O)C2O)cc1 (stereo unspecified) please. > 100 µM (inactive)

Quote GI50 reported for CCCCCCSCC/C(C)=N\OC please. > 100 µM (inactive)

Quote GI50 reported for COC(=O)/C=C\Sc1ccn(/C=C\C(=O)OC)c(=S)n1 please. 2.77 µM (inactive)
